method: Human HepG2 cell viability assay in 384 well format
Type: toxicity, cell-based
Set-up: dose 125 nL, time 70.5 hour; concentration not given beside the values
assay.conditions: HepG2 cells, read-out: Inhibition
test.readout: cytotoxicity at 70.5 h (%)
// note: answer is a bare numeric in %

Take a look at these entries with their results.
• CN(C)CCN1CCCC12CCN(C(=O)c1cccnc1)CC2 = -3.11
• COC(=O)N1CCCC(C(=O)N(C)C)C1 (configuration not stated) = -9.72
• Cc1cc(Cn2cncc(Br)c2=O)on1 = 5.25
• c1ccc(Sc2ccc3c(c2)OCO3)c(CNC2=NCCN2)c1 = -0.794
• CSCC(=O)N(Cc1ccccn1)Cc1ccccc1C = -4.08
• O=C(Nc1cn[nH]c1)NC1CCN(c2ccccc2OC(F)F)C1 (configuration not stated) = 2.39
• O=C(NCCC(=O)N1CCCCCC1)c1c(O)cc(F)cc1F = 9.05
• COc1cc(-c2nc3c([nH]2)CCCNC3=O)ccc1OC(C)C = -3.41
• Cc1nc(CN(C)C(=O)CNC(=O)c2ccc(C#N)cc2)cs1 = -8.22
• CC(C)(C)c1ccc(C2(C(=O)NCCS(C)(=O)=O)CC2)cc1 = -6.58

// field: cytotoxicity at 70.5 h; key: CC(=O)N1CCCc2ccc(S(=O)(=O)N3CCCCC3C)cc21 (configuration not stated) ; value = -3.92

Record COc1ccc(CC(=O)N2CCCCC2Cn2cc(C)cn2)cc1F (configuration not stated) . Reported cytotoxicity at 70.5 h: 2.82
